Test system: pSTAT3 in HEPG2 (liver cancer) cells induced by IL-6
Measurement Notes: Inhibition of pSTAT3 (IL-6 induced phosphorylation of STAT3, Phospho-STAT3 (Tyr705) Sandwich ELISA)
Format: cell-based
Condition Label: Homo sapiens, 4 hours compound, then IL-6 (10 ng/mL) 30 minutes
Would you mind telling me the reported inhibition at 10 µM of each entry?
One number for each entry, in %.

Use the examples below as a reference point.
> print(dat)
                                   compound  output.unit  observed.value
1  COC(=O)/C(=C/c1ccc(OCC(O)CNCCOc2ccccc2OC)cc1)c1ccc(C)cc1 (stereo not drawn)            %            77.2
2  COc1ccccc1OCCNCC(O)COc1ccc(/C(=C\c2ccc(F)c(F)c2)C(N)=O)cc1 (stereo not drawn)            %               0
3  COC(=O)/C(=C/c1ccc(OCC(O)CNCc2ccccc2)cc1)c1cccc(Cl)c1 (stereo not drawn)            %            58.4
4  COC(=O)/C(=C/c1ccc(OCC(O)CNCCOc2ccccc2OC)cc1)c1cccc(F)c1 (stereo not drawn)            %            49.9
5  COC(=O)/C(=C/c1ccc(F)c(C)c1)c1ccc(OCC(O)CNCc2ccc(OC)cc2OC)cc1 (stereo not drawn)            %            22.2
6  COC(=O)/C(=C/c1ccccc1OCC(O)CNCc1ccccc1)c1ccc(OC)cc1 (stereo not drawn)            %            46.4

Answer for every listed entry: what is its inhibition at 10 µM? The entries follow.
1. COC(=O)/C(=C/c1ccc(OCC(O)CNCc2ccc(OC)cc2OC)cc1)c1ccccc1F (stereo not drawn)
2. COC(=O)/C(=C/c1ccc(C)s1)c1ccc(OCC(O)CNCc2ccc(OC)cc2OC)cc1 (stereo not drawn)
3. COC(=O)/C(=C/c1ccc(OCC(O)CNCc2ccc(OC)cc2OC)cc1)c1ccc(F)cc1 (stereo not drawn)

OUT:
61.4
56.2
32.7
